B1: TBX5 (parent)
chain: YQNHKITQLKIENNPFAKGFRGSD

- Variants of: B1
- PROTOCOL TEXT: protein stability index of a GFP-peptide fusion (GPS, HEK-293T) (PSI 1-6); higher = more stable;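 further: lentivirally expressed fusions sorted by FACS into six bins by GFP to DsRed ratio, PSI derived from sequencing read proportions per bin multiplied by bin number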
- CONDITION: c terminus: a fixed tail appended
Categorize each record by its protein stability index using bin 1 = under 2, bin 2 = from 2 up to 3, bin 3 = 3 and over

Past entries and their recorded results:
   mutant  label_class
0     L9K        bin 2
1    G22F        bin 1
2    P15W        bin 1
3    K18L        bin 2
4     I6H        bin 2

Prompt line: Please indicate the class for `T7N` based on its protein stability index.
Response line: bin 2

Prompt line: Class label required: `Q8C`
Response line: bin 1

Prompt line: In plain terms, what class is `I6M` ?
Response line: bin 2

Prompt line: For the record `N13T` , report the class its protein stability index corresponds to.
Response line: bin 2
